Target: T1, GST-fused talin1 FERM F2–F3 domain
T1 chain: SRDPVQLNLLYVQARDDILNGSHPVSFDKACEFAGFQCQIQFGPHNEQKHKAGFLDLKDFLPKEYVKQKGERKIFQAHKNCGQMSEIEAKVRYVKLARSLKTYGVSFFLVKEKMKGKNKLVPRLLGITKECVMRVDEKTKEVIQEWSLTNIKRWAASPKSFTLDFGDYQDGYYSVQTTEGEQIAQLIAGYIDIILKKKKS
Assay: BLI
Property: pKd
Here pKd is given on a logarithmic scale as minus log10 of the concentration in mol/L.

Query synthetic integrin β7 cytoplasmic tail peptide (GST carrier omitted. F2-F3 limits are not given; 206-405 is the usual talin1 F2-F3 construct. Mouse is assumed because the other talin1 constructs in the paper are mouse.) peptide: RLSVEIYDRREYSRFEKEQQQLNWKQDSNPLYKSAITTTINPRFQEADSPTL yields pKd of 3.91

Query KLLMIIHDRREFAKFEKEKMNAKWDTGENPIYKSAVTTVVNPKYEGK (GST carrier omitted. F2-F3 limits are not given; 206-405 is the usual talin1 F2-F3 construct. Mouse is assumed because the other talin1 constructs in the paper are mouse.) [synthetic integrin β1 cytoplasmic tail peptide] yields pKd of 4.04

Query KLLITIHDRKEFAKFEEERARAKWDTANNPLYKEATSTFTNITYRGT (GST carrier omitted. F2-F3 limits are not given; 206-405 is the usual talin1 F2-F3 construct. Mouse is assumed because the other talin1 constructs in the paper are mouse.) [synthetic integrin β3 cytoplasmic tail peptide] yields pKd of 3.88

Query KALIHLSDLREYRRFEKEKLKSQWNNDNPLFKSATTTVMNPKFAES (GST carrier omitted. F2-F3 limits are not given; 206-405 is the usual talin1 F2-F3 construct. Mouse is assumed because the other talin1 constructs in the paper are mouse.) [synthetic integrin β2 cytoplasmic tail peptide] yields pKd of 4.36
